system-tested: AuroraB (Homo sapiens, UniProt Q96GD4)
Construct: 20 μL of AuroraB FL H is for a final volume of 41 μL; His
Sequence (Q96GD4 whole entry): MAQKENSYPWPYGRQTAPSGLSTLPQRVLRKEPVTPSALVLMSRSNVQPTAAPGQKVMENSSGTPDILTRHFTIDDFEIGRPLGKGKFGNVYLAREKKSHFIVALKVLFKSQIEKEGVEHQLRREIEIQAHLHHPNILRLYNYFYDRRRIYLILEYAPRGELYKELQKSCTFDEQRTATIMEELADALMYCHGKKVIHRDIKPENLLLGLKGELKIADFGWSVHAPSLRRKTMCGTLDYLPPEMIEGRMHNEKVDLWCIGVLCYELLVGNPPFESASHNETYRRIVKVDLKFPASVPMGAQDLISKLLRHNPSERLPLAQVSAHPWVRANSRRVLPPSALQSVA
assay-summary: AuroraB Homogeneous Time Resolved Fluorescent (HTRF) kinase assay
Format: biochemical
measurement-context: average; read-out: AurB_IC50_IP (uM Avg)
Collected IC50 values appear next to each entry.
# unit: µM | format: bare number

In one line, give reported IC50 of the entry COc1cnc2c(Sc3ccc(Nc4nnc(N5CCC(F)CC5)c5ccccc45)cc3)ccnc2c1 .
0.059

In one line, give reported IC50 of the entry COc1cnc2c(Oc3ccc(Nc4nnc(-c5ccc(Cl)cc5OC)c5ccccc45)cc3)ccnc2c1 .
0.009

In one line, give reported IC50 of the entry COc1cnc2c(Oc3ccc(Nc4nnc(-c5ccc(C)c(N)c5)c5ccccc45)cc3)ccnc2c1 .
0.001

In one line, give reported IC50 of the entry Cn1cncc1-c1cc2nccc(Oc3ccc(Nc4nnc(-c5ccccc5)c5ccccc45)cc3)c2s1 .
0.002

In one line, give reported IC50 of the entry COc1cnc2c(Oc3ccc(Nc4nnc(-c5ccc(C)c(O)c5)c5ccccc45)cc3)ccnc2c1 .
0.006

More entries:
In one line, give reported IC50 of the entry COc1cnc2c(Oc3ccc(Nc4nnc(-c5cc(C)no5)c5ccccc45)cc3)ccnc2c1 .
0.007

In one line, give reported IC50 of the entry COc1cnc2c(Oc3ccc(Nc4nnc(-c5ccc(OC)c(F)c5)c5ccccc45)cc3)ccnc2c1 .
0.003

In one line, give reported IC50 of the entry COc1cncc(-c2nnc(Nc3ccc(Oc4ccnc5cc(OC)cnc45)cc3)c3ccccc23)c1 .
0.014

meta.source: patent US8557816B2
